I'd appreciate it if you could supply MIC values for the items below.
Test system: NDM-1 K. pneumoniae XJ155018
Assay: Antibiotic susceptibility (MIC), automated identification system
Format: cell-based
Details: Klebsiella pneumoniae; Supplementary Table 2

INPUT: Output measured MIC for this item: CO/N=C(\C(=O)N[C@@H]1C(=O)N2C(C(=O)O)=C(COC(C)=O)CS[C@H]12)c1csc(N)n1 [Cefotaxime]
OUTPUT: > 32 µg/mL

INPUT: Output measured MIC for this item: NCC[C@H](O)C(=O)N[C@@H]1C[C@H](N)[C@@H](O[C@H]2O[C@H](CN)[C@@H](O)[C@H](O)[C@H]2O)[C@H](O)[C@H]1O[C@H]1O[C@H](CO)[C@@H](O)[C@H](N)[C@H]1O [Amikacin]
OUTPUT: ≤ 8 µg/mL

INPUT: Output measured MIC for this item: CC(C)(O/N=C(\C(=O)N[C@@H]1C(=O)N2C(C(=O)[O-])=C(C[n+]3ccccc3)CS[C@H]12)c1csc(N)n1)C(=O)O [Ceftazidime]
OUTPUT: > 16 µg/mL

INPUT: Output measured MIC for this item: C[C@H]1[C@H](NC(=O)/C(=N\OC(C)(C)C(=O)O)c2csc(N)n2)C(=O)N1S(=O)(=O)O [Aztreonam]
OUTPUT: > 16 µg/mL

INPUT: Output measured MIC for this item: O=C(N[C@H](CO)[C@H](O)c1ccc([N+](=O)[O-])cc1)C(Cl)Cl [Chloramphenicol]
OUTPUT: > 16 µg/mL

INPUT: Output measured MIC for this item: C[C@@H](O)[C@H]1C(=O)N2C(C(=O)O)=C(SCCN=CN)C[C@H]12 [Imipenem]
OUTPUT: > 8 µg/mL

INPUT: Output measured MIC for this item: CC1(C)S[C@@H]2[C@H](NC(=O)[C@H](N)c3ccccc3)C(=O)N2[C@H]1C(=O)O [Ampicillin]
OUTPUT: > 16 µg/mL

* * *

Test system: NDM-1 E. coli XJ141015
Assay: Antibiotic susceptibility (MIC), automated identification system
Type: cell-based
Details: Escherichia coli; Supplementary Table 1
I'd appreciate it if you could supply MIC values for the items below.

INPUT: Output measured MIC for this item: "CCN1CCN(C(=O)N[C@@H](C(=O)N[C@@H]2C(=O)N3[C@@H]2SC(C)(C)[C@@H]3C(=O)O)c2ccccc2)C(=O)C1=O"
OUTPUT: > 64 µg/mL

INPUT: Output measured MIC for this item: "C[C@H]1COc2c(N3CCN(C)CC3)c(F)cc3c(=O)c(C(=O)O)cn1c23"
OUTPUT: > 8 µg/mL

INPUT: Output measured MIC for this item: CO/N=C(\C(=O)N[C@@H]1C(=O)N2C(C(=O)[O-])=C(C[N+]3(C)CCCC3)CS[C@H]12)c1csc(N)n1 [Cefepime]
OUTPUT: > 16 µg/mL

INPUT: Output measured MIC for this item: "Cc1nnc(SCC2=C(C(=O)O)N3C(=O)[C@@H](NC(=O)Cn4cnnn4)[C@H]3SC2)s1"
OUTPUT: > 16 µg/mL

INPUT: Output measured MIC for this item: "NCC[C@H](O)C(=O)N[C@@H]1C[C@H](N)[C@@H](O[C@H]2O[C@H](CN)[C@@H](O)[C@H](O)[C@H]2O)[C@H](O)[C@H]1O[C@H]1O[C@H](CO)[C@@H](O)[C@H](N)[C@H]1O"
OUTPUT: ≤ 8 µg/mL

* * *

Test system: NDM-1 E. coli XJ141026
Experiment: Antibiotic susceptibility (MIC), automated identification system
Format: cell-based
Details: Escherichia coli; Supplementary Table 1
I'd appreciate it if you could supply MIC values for the items below.

INPUT: Output measured MIC for this item: O=C(N[C@H](CO)[C@H](O)c1ccc([N+](=O)[O-])cc1)C(Cl)Cl [Chloramphenicol]
OUTPUT: ≤ 4 µg/mL

INPUT: Output measured MIC for this item: CO/N=C(\C(=O)N[C@@H]1C(=O)N2C(C(=O)[O-])=C(C[N+]3(C)CCCC3)CS[C@H]12)c1csc(N)n1 [Cefepime]
OUTPUT: > 16 µg/mL

INPUT: Output measured MIC for this item: CNC(C)C1CCC(N)C(OC2C(N)CC(N)C(OC3OCC(C)(O)C(NC)C3O)C2O)O1 (stereo not drawn) [Gentamicin]
OUTPUT: > 8 µg/mL

INPUT: Output measured MIC for this item: COc1c(N2C[C@@H]3CCCN[C@@H]3C2)c(F)cc2c(=O)c(C(=O)O)cn(C3CC3)c12 [Moxifloxacin]
OUTPUT: > 4 µg/mL

INPUT: Output measured MIC for this item: C[C@@H](O)[C@H]1C(=O)N2C(C(=O)O)=C(SCCN=CN)C[C@H]12 [Imipenem]
OUTPUT: > 8 µg/mL

INPUT: Output measured MIC for this item: NCC[C@H](O)C(=O)N[C@@H]1C[C@H](N)[C@@H](O[C@H]2O[C@H](CN)[C@@H](O)[C@H](O)[C@H]2O)[C@H](O)[C@H]1O[C@H]1O[C@H](CO)[C@@H](O)[C@H](N)[C@H]1O [Amikacin]
OUTPUT: ≤ 8 µg/mL

INPUT: Output measured MIC for this item: C[C@@H](O)[C@H]1C(=O)N2C(C(=O)O)=C(S[C@@H]3CN[C@H](C(=O)N(C)C)C3)[C@H](C)[C@H]12 [Meropenem]
OUTPUT: > 8 µg/mL

INPUT: Output measured MIC for this item: C[C@H]1[C@H](NC(=O)/C(=N\OC(C)(C)C(=O)O)c2csc(N)n2)C(=O)N1S(=O)(=O)O [Aztreonam]
OUTPUT: > 16 µg/mL

INPUT: Output measured MIC for this item: CO/N=C(\C(=O)N[C@@H]1C(=O)N2C(C(=O)O)=C(COC(C)=O)CS[C@H]12)c1csc(N)n1 [Cefotaxime]
OUTPUT: > 32 µg/mL

INPUT: Output measured MIC for this item: CC(C)(O/N=C(\C(=O)N[C@@H]1C(=O)N2C(C(=O)[O-])=C(C[n+]3ccccc3)CS[C@H]12)c1csc(N)n1)C(=O)O [Ceftazidime]
OUTPUT: > 16 µg/mL

INPUT: Output measured MIC for this item: CCN1CCN(C(=O)N[C@@H](C(=O)N[C@@H]2C(=O)N3[C@@H]2SC(C)(C)[C@@H]3C(=O)O)c2ccccc2)C(=O)C1=O [Piperacillin]
OUTPUT: > 64 µg/mL

INPUT: Output measured MIC for this item: Cc1nnc(SCC2=C(C(=O)O)N3C(=O)[C@@H](NC(=O)Cn4cnnn4)[C@H]3SC2)s1 [Cefazolin]
OUTPUT: > 16 µg/mL

INPUT: Output measured MIC for this item: CC1(C)S[C@@H]2[C@H](NC(=O)[C@H](N)c3ccccc3)C(=O)N2[C@H]1C(=O)O [Ampicillin]
OUTPUT: > 16 µg/mL

INPUT: Output measured MIC for this item: CN(C)[C@@H]1C(O)=C(C(N)=O)C(=O)[C@@]2(O)C(O)=C3C(=O)c4c(O)cccc4[C@@](C)(O)[C@H]3C[C@@H]12 [Tetracycline]
OUTPUT: > 8 µg/mL

INPUT: Output measured MIC for this item: C[C@H]1COc2c(N3CCN(C)CC3)c(F)cc3c(=O)c(C(=O)O)cn1c23 [Levofloxacin]
OUTPUT: > 8 µg/mL

* * *

Test system: NDM-1 K. pneumoniae XJ155018
Test: Antibiotic susceptibility (MIC), automated identification system
Type: cell-based
Settings: Klebsiella pneumoniae; Supplementary Table 2
Measured Attribute: MIC

INPUT: Identify measured MIC obtained with NDM-1 K. pneumoniae XJ155018 for COc1c(N2C[C@@H]3CCCN[C@@H]3C2)c(F)cc2c(=O)c(C(=O)O)cn(C3CC3)c12 [Moxifloxacin] .
OUTPUT: > 4 µg/mL

INPUT: Identify measured MIC obtained with NDM-1 K. pneumoniae XJ155018 for CCN1CCN(C(=O)N[C@@H](C(=O)N[C@@H]2C(=O)N3[C@@H]2SC(C)(C)[C@@H]3C(=O)O)c2ccccc2)C(=O)C1=O [Piperacillin] .
OUTPUT: > 64 µg/mL

INPUT: Identify measured MIC obtained with NDM-1 K. pneumoniae XJ155018 for CNC(C)C1CCC(N)C(OC2C(N)CC(N)C(OC3OCC(C)(O)C(NC)C3O)C2O)O1 (stereo not shown) [Gentamicin] .
OUTPUT: ≤ 2 µg/mL

INPUT: Identify measured MIC obtained with NDM-1 K. pneumoniae XJ155018 for CN(C)[C@@H]1C(O)=C(C(N)=O)C(=O)[C@@]2(O)C(O)=C3C(=O)c4c(O)cccc4[C@@](C)(O)[C@H]3C[C@@H]12 [Tetracycline] .
OUTPUT: > 8 µg/mL

INPUT: Identify measured MIC obtained with NDM-1 K. pneumoniae XJ155018 for C[C@@H](O)[C@H]1C(=O)N2C(C(=O)O)=C(S[C@@H]3CN[C@H](C(=O)N(C)C)C3)[C@H](C)[C@H]12 [Meropenem] .
OUTPUT: > 8 µg/mL

INPUT: Identify measured MIC obtained with NDM-1 K. pneumoniae XJ155018 for CO/N=C(\C(=O)N[C@@H]1C(=O)N2C(C(=O)[O-])=C(C[N+]3(C)CCCC3)CS[C@H]12)c1csc(N)n1 [Cefepime] .
OUTPUT: > 16 µg/mL

INPUT: Identify measured MIC obtained with NDM-1 K. pneumoniae XJ155018 for Cc1nnc(SCC2=C(C(=O)O)N3C(=O)[C@@H](NC(=O)Cn4cnnn4)[C@H]3SC2)s1 [Cefazolin] .
OUTPUT: > 16 µg/mL
